Tested on: SREBP
Assay: SREBP induction in human liver (HepG2) cells, RT-PCR
Type: cell-based
Conditions: fold induction compared to DMSO; several values per cell; Table 6
Protocol: The SREBP transcription factor is involved in triglyceride synthesis, and its activation correlates with increased triglycerides in vivo. […] Lower numbers indicate better safety. […] Lower numbers indicate better safety. Also, for Table 6, SREBP activation was measured as fold induction compared to DMSO, where a lower value indicates the compound is an improvement over a control.
Entries annotated with measured SREBP activation
experimental_readout: SREBP activation (fold induction)

* CCCCN(c1cc(C(C)(C)C)cc(C(C)(C)C)c1)c1ccc(C(=O)O)cn1 [drawing 123] | 5.3
* C=C(c1ccc(C(=O)O)cc1)c1cc(C(C)C)c(OC(C)C)cc1C [drawing 114] | 4.7
* CCN(c1ccc(C(=O)O)cc1)c1cc(C(C)C)c(OCC(C)C)cc1C [drawing 120] | 1.3
* C=C(c1ccc(C(=O)O)cc1)c1cc(C(C)C)c(OCC)cc1C [drawing 115] | 1.4

---

Entries annotated with measured RXR assay
target: human RXRa (Homo sapiens); assay: RXR activation luciferase reporter assay; assay type: cell-based; conditions: 2500 nM; luciferase; Control 0; higher numbers indicate higher potency
Sequence (P19793 whole entry): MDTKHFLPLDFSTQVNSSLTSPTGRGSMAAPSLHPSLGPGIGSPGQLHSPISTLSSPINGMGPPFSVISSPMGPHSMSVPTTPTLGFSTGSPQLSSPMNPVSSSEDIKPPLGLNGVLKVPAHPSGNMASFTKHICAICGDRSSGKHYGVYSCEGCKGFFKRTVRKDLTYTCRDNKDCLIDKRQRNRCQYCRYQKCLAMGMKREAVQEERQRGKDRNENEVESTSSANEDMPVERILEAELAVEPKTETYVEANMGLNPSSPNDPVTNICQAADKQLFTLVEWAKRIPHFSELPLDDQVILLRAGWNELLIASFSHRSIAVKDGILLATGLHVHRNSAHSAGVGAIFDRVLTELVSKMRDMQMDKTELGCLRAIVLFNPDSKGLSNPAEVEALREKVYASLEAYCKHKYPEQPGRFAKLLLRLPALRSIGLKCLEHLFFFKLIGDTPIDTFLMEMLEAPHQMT
experimental_readout: RXR assay

* CCCCN(c1cc(C(C)(C)C)cc(C(C)(C)C)c1)c1ccc(C(=O)O)cn1 | 24350
* C=C(c1ccc(C(=O)O)cc1)c1cc(C(C)(C)C)cc(C(C)(C)C)c1 | 8163
* CCN(c1ccc(C(=O)O)cc1)c1cc(C(C)(C)C)cc(C(C)(C)C)c1 | 23514
* C/C(=C/C=C/C(C)=C/C(=O)O)c1cc(C(C)(C)C)cc(C(C)(C)C)c1OCC(F)F [LG101506, reference compound] | 558
* CC(C)CN(c1cc(C(C)(C)C)cc(C(C)(C)C)c1)c1ccc(C(=O)O)cn1 | 35605
* CCCN(c1cc(C(C)(C)C)cc(C(C)(C)C)c1)c1ccc(C(=O)O)cn1 | 26703
* CCN(c1cc(C(C)(C)C)cc(C(C)(C)C)c1)c1ncc(C(=O)O)cn1 | 17963

---

test system: SREBP; experiment: SREBP induction in human liver (HepG2) cells, RT-PCR; format: cell-based; conditions: fold induction compared to DMSO; several values per cell; Table 6
Entries annotated with measured SREBP activation
experimental_readout: SREBP activation (fold induction)

• C=C(c1ccc(C(=O)O)cc1)c1cc(C(C)(C)C)ccc1OCC [drawing 108] = 2.1
• C=C(c1ccc(C(=O)O)cc1)c1ccc(OCC(C)C)c(C(C)C)c1 [drawing 110] = 2
• C=C(c1ccc(C(=O)O)cc1)c1cc(C(C)C)c(OCC(C)C)cc1C [drawing 111] = 1.2
• CCN(c1ccc(C(=O)O)cc1)c1cc(C(C)(C)C)c(OC)c(C(C)(C)C)c1 [drawing 121] = 1.45
• C=C(c1ccc(C(=O)O)cc1)c1cc2c(cc1C)CCCC2(C)C = 2.0
• CCOc1c(N(CC)c2ccc(C(=O)O)cc2)cc(C(C)(C)C)cc1C(C)(C)C [drawing 107] = 2.4

---

test system: inducible nitric oxide synthase (iNOS); experiment: iNOS suppression / NO assay in LPS-stimulated macrophages or RAW264.7 cells (Griess reaction); type: cell-based, mouse; conditions: Mus musculus, RAW264.7, 24 h; at 300 nM; percent of the LPS-stimulated control, lower is better; Table 6; read-out: iNOS suppression
// classify: if (activity at 0.3 µM < 60%) fulfilled else not fulfilled

• C=C(c1ccc(C(=O)O)cc1)c1cc2c(cc1C)CCCC2(C)C = fulfilled
• CCN(c1ccc(C(=O)O)cc1)c1cc(C(C)C)c(OCC(C)C)cc1C [drawing 120] = not fulfilled
• C=C(c1ccc(C(=O)O)cc1)c1ccc(OCC(C)C)c(C(C)C)c1 [drawing 110] = not fulfilled
• C=C(c1ccc(C(=O)O)cc1)c1cc(C(C)C)c(OC(C)C)cc1C [drawing 114] = fulfilled
• C=C(c1ccc(C(=O)O)cc1)c1cc(C(C)(C)C)ccc1OCC [drawing 108] = not fulfilled
• CCN(c1cc(C(F)(F)F)cc(C(F)(F)F)c1)c1ccc(C(=O)O)cn1 [drawing 119] = fulfilled
• C=C(c1ccc(C(=O)O)cc1)c1cc(C(C)C)c(OCC)cc1C [drawing 115] = fulfilled
• CCN(c1cc(C(C)(C)C)cc(C(C)(C)C)c1)c1ncc(C(=O)O)cn1 [drawing 106] = fulfilled
